Sourced from patent US10570179B2

- measurementDescription: Solubility determination
- Type: physicochemical
- Procedure: Test compounds were synthesized and supplied by the Department of Chemical Biology and Therapeutics at St. Jude Children's Research Hospital (Memphis, Tenn.). […] Mass data was acquired with an Acquity SQD Mass Spectrometer. […] 4.1 and analyzed using the Quanlynx software suite. […] Both UV and Single ion recording mass spectrometry were used to determine the quantification of the samples. […] Two calibration curves for solubility test samples were analyzed during the quantitation process. […]
Numbered stars: 1 amine (or outer) side, 2 acyl side, 3 side chain; on linkers, the order of the positions; unused ones are H or OH. Bridge positions count the residues as written; N and C are the ends. Square brackets hold non-standard residues; d marks the D form. Peptide text beside a SMILES is read from it. * marks the point of attachment. ξ: configuration not given here. Phe(3-CF3) = N[C@@H](Cc1cccc(C(F)(F)F)c1)C(=O)O; Piperazine(2S-CO,4-Me) = CN1CCN[C@H](C(=O)O)C1; Phe(3,5-F2) = N[C@@H](Cc1cc(F)cc(F)c1)C(=O)O; Phe(3-Cl) = N[C@@H](Cc1cccc(Cl)c1)C(=O)O; Phe(3-Me) = Cc1cccc(C[C@H](N)C(=O)O)c1; NH(4-Cl-2-F-phenyl) = Fc1cc(Cl)ccc1N*; Pro(4R-Me) = C[C@H]1CN[C@H](C(=O)O)C1; Hyp = O=C(O)[C@@H]1C[C@@H](O)CN1; ξNMeThr = CNC(C(=O)O)[C@@H](C)O; aThr = C[C@H](O)[C@H](N)C(=O)O; Pip = O=C(O)[C@@H]1CCCCN1; X3 = c1cc2c(cc1N*)OCCO2; CO = O=C([*:1])[*:2]; X2 = Fc1cc(N*)ccc1Cl
Measured μsol (μM) of individual entries
endpointName: μsol (μM) (µM)

[[record]]
compound = "Cc1cccc(C[C@H](NC(=O)Nc2ccc3c(c2)OCCO3)C(=O)N[C@@H]2C(=O)N3C[C@H](O)C[C@H]3C(=O)N3CCCC[C@H]3C(=O)N[C@@H](C)C(=O)N3C[C@H](C)C[C@H]3C(=O)O[C@H]2C)c1 [Compound 28] ({X3-CO}-[Phe(3-Me)][aThr][Hyp][Pip]A[Pro(4R-Me)]; ester 2-C)"
measureunit = "µM"
endpointvalue = 30.2

[[record]]
compound = "Cc1cccc(C[C@H](NC(=O)Nc2ccc(Cl)cc2F)C(=O)N[C@H]2COC(=O)[C@@H]3C[C@@H](C)CN3C(=O)[C@H](C)NC(=O)[C@@H]3CCCCN3C(=O)[C@@H]3C[C@@H](O)CN3C2=O)c1"
measureunit = "µM"
endpointvalue = 26.0

[[record]]
compound = "C[C@@H]1C[C@H]2C(=O)OC[C@H](NC(=O)[C@H](Cc3cccc(C(F)(F)F)c3)NC(=O)Nc3ccc(Cl)cc3F)C(=O)N3CCC[C@H]3C(=O)N3CCN(C)C[C@H]3C(=O)N[C@@H](C)C(=O)N2C1 [Compound 18] ({NH(4-Cl-2-F-phenyl)-CO}-[Phe(3-CF3)]SP[Piperazine(2S-CO,4-Me)]A[Pro(4R-Me)]; ester 2-C)"
measureunit = "µM"
endpointvalue = 22.7

[[record]]
compound = "Cc1cccc(C[C@H](NC(=O)Nc2ccc(Cl)c(F)c2)C(=O)N[C@H]2COC(=O)[C@@H]3C[C@@H](C)CN3C(=O)[C@H](C)NC(=O)[C@@H]3CN(C)CCN3C(=O)[C@@H]3CCCN3C2=O)c1 [Compound 14] ({X2-CO}-[Phe(3-Me)]SP[Piperazine(2S-CO,4-Me)]A[Pro(4R-Me)]; ester 2-C)"
measureunit = "µM"
endpointvalue = 43.6

[[record]]
compound = "C[C@@H]1C[C@H]2C(=O)OC[C@H](NC(=O)[C@H](Cc3cc(F)cc(F)c3)NC(=O)Nc3ccc(Cl)cc3F)C(=O)N3CCC[C@H]3C(=O)N3CCN(C)C[C@H]3C(=O)N[C@@H](C)C(=O)N2C1 [Compound 34] ({NH(4-Cl-2-F-phenyl)-CO}-[Phe(3,5-F2)]SP[Piperazine(2S-CO,4-Me)]A[Pro(4R-Me)]; ester 2-C)"
measureunit = "µM"
endpointvalue = 38.7

[[record]]
compound = "C[C@@H]1C[C@H]2C(=O)O[C@@H](C)[C@H](NC(=O)[C@H](Cc3cccc(Cl)c3)NC(=O)Nc3ccc(Cl)cc3F)C(=O)N3CCC[C@H]3C(=O)N3CCN(C)C[C@H]3C(=O)N[C@@H](C)C(=O)N2C1 [Compound 33] ({NH(4-Cl-2-F-phenyl)-CO}-[Phe(3-Cl)][aThr]P[Piperazine(2S-CO,4-Me)]A[Pro(4R-Me)]; ester 2-C)"
measureunit = "µM"
endpointvalue = 17.2

[[record]]
compound = "Cc1cccc(C[C@H](NC(=O)Nc2ccc(Cl)cc2F)C(=O)N[C@@H]2C(=O)N3CCC[C@H]3C(=O)N(C)C([C@@H](C)O)C(=O)N[C@@H](C)C(=O)N3C[C@H](C)C[C@H]3C(=O)O[C@H]2C)c1 (stereo partly drawn) [Compound 5] ({NH(4-Cl-2-F-phenyl)-CO}-[Phe(3-Me)][aThr]P[ξNMeThr]A[Pro(4R-Me)]; ester 2-C)"
measureunit = "µM"
endpointvalue = 22.5

